Assay: Cytotoxicity against MDCK cells after 48 hrs
Assay type: cell-based, Canis lupus familiaris
Conditions: dog, read-out: TC50
Consider the cut-off 70 µg/mL. If the recorded CC50 at 48 h is strictly smaller, the label is True; if not, the label is False.

See these solved cases before continuing.
- smiles.repr: "C=C(C(=O)OCc1cn(Cc2ccc(F)cc2)nn1)[C@@H]1CC[C@H](C)[C@@H]2CC(=O)C(C)=C2C1"
  classification: "True"
- smiles.repr: "C=C(C(=O)OCc1cn(Cc2ccc(OC)cc2)nn1)[C@@H]1CC[C@H](C)[C@@H]2CC(=O)C(C)=C2C1"
  classification: "True"
- smiles.repr: "C=C(C(=O)NCc1cn(Cc2cccc(C)c2)nn1)[C@@H]1CC[C@H](C)[C@@H]2CC(=O)C(C)=C2C1"
  classification: "True"
- smiles.repr: "C=C(C(=O)NCc1cn(Cc2ccccc2Cl)nn1)[C@@H]1CC[C@H](C)[C@@H]2CC(=O)C(C)=C2C1"
  classification: "True"
- smiles.repr: "C=C(C(=O)NCc1cn(Cc2ccccc2)nn1)[C@@H]1CC[C@H](C)[C@@H]2CC(=O)C(C)=C2C1"
  classification: "False"
- smiles.repr: "C=C(C(=O)NCc1cn(C2CCCCC2)nn1)[C@@H]1CC[C@H](C)[C@@H]2CC(=O)C(C)=C2C1"
  classification: "True"

Given C=C(C(=O)OCc1cn(Cc2cccc(Cl)c2)nn1)[C@@H]1CC[C@H](C)[C@@H]2CC(=O)C(C)=C2C1 , is recorded CC50 at 48 h strictly lower than 70 µg/mL?
False

Given C=C(C(=O)OCc1cn(Cc2cccc(OC)c2)nn1)[C@@H]1CC[C@H](C)[C@@H]2CC(=O)C(C)=C2C1 , is recorded CC50 at 48 h strictly lower than 70 µg/mL?
False

* * *

Assay: Selectivity index, ratio of TC50 for MDCK cells to IC50 for Influenza B virus jifang/13/97
Format: toxicity, cell-based
Settings: dog, read-out: Selectivity Index
measurement.name: selectivity ratio
Write the number on its own, no unit after it.

Example cases with answers are listed next.
- smiles.repr: "C=C(C(=O)OCc1cn(C2CCCCC2)nn1)[C@@H]1CC[C@H](C)[C@@H]2CC(=O)C(C)=C2C1"
  selectivity ratio: 6.5
- smiles.repr: "C=C(C(=O)NCc1cn(Cc2cccc(C)c2)nn1)[C@@H]1CC[C@H](C)[C@@H]2CC(=O)C(C)=C2C1"
  selectivity ratio: 5.7
- smiles.repr: "C=C(C(=O)NCc1cn(Cc2ccc(F)cc2)nn1)[C@@H]1CC[C@H](C)[C@@H]2CC(=O)C(C)=C2C1"
  selectivity ratio: 43.8
- smiles.repr: "C=C(C(=O)OCc1cn(Cc2ccccc2C)nn1)[C@@H]1CC[C@H](C)[C@@H]2CC(=O)C(C)=C2C1"
  selectivity ratio: 2.55
- smiles.repr: "C=C(C(=O)OCc1cn(Cc2cccc(Cl)c2)nn1)[C@@H]1CC[C@H](C)[C@@H]2CC(=O)C(C)=C2C1"
  selectivity ratio: 2.1

Data request, read-out selectivity ratio, for NC(=O)c1ncn([C@@H]2O[C@H](CO)[C@@H](O)[C@H]2O)n1
206

Data request, read-out selectivity ratio, for C=C(C(=O)OCc1cn(Cc2ccc(Cl)cc2)nn1)[C@@H]1CC[C@H](C)[C@@H]2CC(=O)C(C)=C2C1
5.2
